B1: glmS ribozyme (parent)
chain: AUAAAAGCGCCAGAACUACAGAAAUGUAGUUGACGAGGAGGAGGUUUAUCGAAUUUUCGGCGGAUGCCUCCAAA

# Variants of: B1
# EXPERIMENT SUMMARY: self-cleavage kobs at 10000 uM GlcN6P; higher = faster cleavage; RNA array
# EXPERIMENTAL SETUP: with glucosamine-6-phosphate
Variants at the floor of the assay were thinned out.
Parameter self-cleavage kobs at 10000 uM GlcN6P: see the listing below.
Only the number, expressed in s⁻¹, is required.

>>> observed_value("A39U U46A")
0.00219
>>> observed_value("A39U A53C")
0.00454
>>> observed_value("G41U A53C")
0.000139
>>> observed_value("A15U U45G")
0.000705
>>> observed_value("A15U G32U")
0.000628

Exercise: Item under review: A15C G66A . Reported self-cleavage kobs at 10000 uM GlcN6P?
Solution: 0.00503

Exercise: Any idea what its self-cleavage kobs at 10000 uM GlcN6P is? The variant is "C68A"
Solution: 0.000447

Exercise: What value of self-cleavage kobs at 10000 uM GlcN6P has been recorded for this entry: U45G A64G
Solution: 0.00759

Exercise: What does the data say about its self-cleavage kobs at 10000 uM GlcN6P? Entry: A42G A48C
Solution: 0.000506

Exercise: Which self-cleavage kobs at 10000 uM GlcN6P is listed for U46G U65A ?
Solution: 0.00296

Exercise: If you can, please state the reported self-cleavage kobs at 10000 uM GlcN6P value of U46C U54G .
Solution: 0.00287

Exercise: Find the recorded self-cleavage kobs at 10000 uM GlcN6P belonging to G37C C70U and report it.
Solution: 3.18e-05

Exercise: Fill in the blank: the reported self-cleavage kobs at 10000 uM GlcN6P of A12C U45A A64U is ____.
Solution: 0.000223

Exercise: Any idea what its self-cleavage kobs at 10000 uM GlcN6P is? The variant is G13U C50G C61G G62A U65G C68U
Solution: 3.93e-05
